- Assay System: soluble guanylate cyclase (sGC) (Homo sapiens (Human), UniProt Q02108+Q02153)
- Sequence (Q02153 whole entry): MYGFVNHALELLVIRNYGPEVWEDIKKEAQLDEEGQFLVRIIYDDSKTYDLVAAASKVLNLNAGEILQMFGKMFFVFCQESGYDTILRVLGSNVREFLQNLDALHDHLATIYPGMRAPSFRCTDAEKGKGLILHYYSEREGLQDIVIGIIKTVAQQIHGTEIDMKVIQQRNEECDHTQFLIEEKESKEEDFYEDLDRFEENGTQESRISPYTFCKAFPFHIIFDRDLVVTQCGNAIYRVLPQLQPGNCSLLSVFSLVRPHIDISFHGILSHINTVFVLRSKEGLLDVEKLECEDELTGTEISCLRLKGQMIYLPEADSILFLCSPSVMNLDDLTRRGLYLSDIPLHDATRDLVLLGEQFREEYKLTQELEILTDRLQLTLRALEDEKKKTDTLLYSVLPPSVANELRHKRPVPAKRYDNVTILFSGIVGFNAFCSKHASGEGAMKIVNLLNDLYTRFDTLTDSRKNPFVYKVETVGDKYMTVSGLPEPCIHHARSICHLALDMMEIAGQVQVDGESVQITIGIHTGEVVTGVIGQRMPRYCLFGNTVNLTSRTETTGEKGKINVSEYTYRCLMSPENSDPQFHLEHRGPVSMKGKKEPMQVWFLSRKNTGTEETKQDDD
- Sequence (Q02108 whole entry): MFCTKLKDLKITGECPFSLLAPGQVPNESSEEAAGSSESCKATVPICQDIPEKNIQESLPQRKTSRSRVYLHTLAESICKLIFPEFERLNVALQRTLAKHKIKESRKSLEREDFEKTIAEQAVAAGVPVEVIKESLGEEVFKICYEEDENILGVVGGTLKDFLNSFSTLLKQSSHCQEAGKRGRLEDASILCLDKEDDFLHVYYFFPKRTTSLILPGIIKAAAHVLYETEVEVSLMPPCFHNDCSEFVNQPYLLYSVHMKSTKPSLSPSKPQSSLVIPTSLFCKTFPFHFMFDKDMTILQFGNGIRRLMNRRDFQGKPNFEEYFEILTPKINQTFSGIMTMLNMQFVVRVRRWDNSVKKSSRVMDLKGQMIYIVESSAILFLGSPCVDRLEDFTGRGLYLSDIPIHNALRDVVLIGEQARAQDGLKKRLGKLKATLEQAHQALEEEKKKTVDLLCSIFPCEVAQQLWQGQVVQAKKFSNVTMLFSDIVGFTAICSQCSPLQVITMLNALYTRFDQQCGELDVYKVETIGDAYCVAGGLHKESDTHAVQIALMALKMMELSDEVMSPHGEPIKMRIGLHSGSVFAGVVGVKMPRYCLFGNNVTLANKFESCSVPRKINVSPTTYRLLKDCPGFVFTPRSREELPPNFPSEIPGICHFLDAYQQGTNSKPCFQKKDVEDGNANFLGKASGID
- Experiment Notes: sGC-HEK-cGMP assay, new protocol with DETA-NONOate, LC/MS detection (Example 2C)
- Type: cell-based
- Measurement Setup: read-out: Absolute EC50 (uM) - binned
Provide the reported EC50 of each item.

// sample O=C(NC(CO)CO)[C@@H](CO)Nc1nc(-c2cc(-c3ccon3)n(Cc3ccccc3F)n2)ncc1F [Compound I-336] , its EC50 was > 1 µM

// sample O=C1CCC(C(=O)Nc2ccnc(-c3cc(-c4ccon4)n(Cc4ccccc4F)n3)n2)N1 (stereo not shown) [Compound I-459] , its EC50 was > 1 µM

// sample O=C(Nc1ccnc(-c2cc(-c3ccon3)n(Cc3ccccc3F)n2)n1)c1ccc[nH]1 [Compound I-550] , its EC50 was > 1 µM

// sample CC(C)(O)CNc1nc(-c2cc(-c3ccon3)n(Cc3ccccc3F)n2)ncc1F [Compound I-325] , its EC50 was < 0.1 µM

// sample O=C(Nc1ccnc(-c2cc(-c3ccon3)n(Cc3ccccc3F)n2)n1)C1(O)CC1 [Compound I-478] , its EC50 was < 0.1 µM

// sample CN(C[C@@H](O)CO)c1nc(-c2cc(-c3ccon3)n(Cc3ccccc3F)n2)ncc1F [Compound I-321] , its EC50 was < 0.1 µM

// sample O=C(O)c1cccc2c1CN(c1nc(-c3cc(-c4ccon4)n(Cc4ccccc4F)n3)ncc1F)CC2 [Compound I-339] , its EC50 was < 0.1 µM

// sample COC(=O)CS(=O)(=O)Nc1ccnc(-c2cc(-c3ccon3)n(Cc3ccccc3F)n2)n1 [Compound I-510] , its EC50 was 0.101 to 1 µM

// sample NC(=O)CNc1nc(-c2cc(-c3ccon3)n(CCC(F)(F)F)n2)ncc1F [Compound I-511] , its EC50 was > 1 µM

// sample O=C(Nc1ccnc(-c2cc(-c3ccon3)n(Cc3ccccc3F)n2)n1)c1cc[nH]n1 [Compound I-386] , its EC50 was > 1 µM

// sample CCOC(=O)C1(C)CCN(c2nc(-c3cc(-c4ccon4)n(Cc4ccccc4F)n3)ncc2F)C1=O (stereo not shown) [Compound I-591] , its EC50 was 0.101 to 1 µM

// sample Cc1cc(-c2ncc(F)c(NCC(O)(C(F)(F)F)C(F)(F)F)n2)nn1Cc1ccccc1F [Compound I-414] , its EC50 was > 1 µM

// sample O=C(O)C1(c2ccc(Nc3nc(-c4cc(-c5ccon5)n(Cc5ccccc5F)n4)ncc3F)cc2)CC1 [Compound I-360] , its EC50 was < 0.1 µM

// sample NC(=O)C1(CNc2nc(-c3cc(-c4ccon4)n(Cc4ccccc4F)n3)ncc2F)CC1 [Compound I-515] , its EC50 was < 0.1 µM

// sample CC(C)[C@@H](Nc1nc(-c2cc(-c3ccon3)n(Cc3ccccc3F)n2)ncc1F)C(N)=O [Compound I-536] , its EC50 was < 0.1 µM

// sample NC(=O)C(Nc1nc(-c2cc(-c3ccon3)n(Cc3ccccc3F)n2)ncc1F)C(F)(F)F (stereo not shown) [Compound I-540] , its EC50 was 0.101 to 1 µM

----------
- Assay System: soluble guanylate cyclase (sGC) (Homo sapiens (Human), UniProt Q02108+Q02153)
- Experiment Notes: sGC-HEK-cGMP assay, new protocol with DETA-NONOate, LC/MS detection (Example 2C)
- Type: cell-based
- Measurement Setup: read-out: Absolute EC50 (uM) - binned
Measurement Name: EC50

// sample O=C(Nc1ccccc1)Nc1ccnc(-c2cc(-c3ccon3)n(Cc3ccccc3F)n2)n1 , its EC50 was > 1 µM

// sample C[C@@H]1CN(c2nc(-c3cc(-c4ccon4)n(Cc4ccccc4F)n3)ncc2F)C[C@@H]1C(=O)O , its EC50 was < 0.1 µM

// sample O=C(CO)Nc1ccnc(-c2cc(-c3ccon3)n(Cc3ccccc3F)n2)n1 , its EC50 was > 1 µM

// sample CS(=O)(=O)NC(=O)CNc1nc(-c2cc(-c3ccon3)n(Cc3ccccc3F)n2)ncc1F , its EC50 was > 1 µM

// sample O=C(Nc1ccnc(-c2cc(-c3ccon3)n(Cc3ccccc3F)n2)n1)c1cncs1 , its EC50 was > 1 µM

// sample O=C(Nc1ccnc(-c2cc(-c3ccon3)n(Cc3ccccc3F)n2)n1)C1(C(F)(F)F)CC1 , its EC50 was > 1 µM

// sample NC(=O)CNc1nc(-c2cc(-c3ccon3)n(Cc3ccccc3F)n2)ncc1F , its EC50 was 0.101 to 1 µM

// sample NC(=O)C1CC(=O)N(c2nc(-c3cc(-c4ccon4)n(Cc4ccccc4F)n3)ncc2F)C1 (stereo not drawn) , its EC50 was > 1 µM

// sample O=S(=O)(N1CC(Nc2nc(-c3cc(-c4ccon4)n(Cc4ccccc4F)n3)ncc2F)C1)C(F)(F)F , its EC50 was > 1 µM

// sample O=C(O)C(O)(CNc1nc(-c2cc(-c3ccon3)n(Cc3ccccc3F)n2)ncc1F)C(F)(F)F (stereo not drawn) , its EC50 was > 1 µM

// sample O=C(NC1CN(c2nc(-c3cc(-c4ccon4)n(Cc4ccccc4F)n3)ncc2F)C1)C(F)(F)F , its EC50 was < 0.1 µM

// sample O=C1CC(Nc2nc(-c3cc(-c4ccon4)n(Cc4ccccc4F)n3)ncc2F)CN1 (stereo not drawn) , its EC50 was < 0.1 µM

// sample CC(CCO)(C(=O)Nc1nc(-c2cc(-c3ccon3)n(Cc3ccccc3F)n2)ncc1F)S(C)(=O)=O (stereo not drawn) , its EC50 was 0.101 to 1 µM

// sample O=C(O)CCCCNc1nc(-c2cc(-c3ccon3)n(Cc3ccccc3F)n2)ncc1F , its EC50 was < 0.1 µM

// sample COC(=O)[C@@H]1CCC(=O)N1c1nc(-c2cc(-c3ccon3)n(Cc3ccccc3F)n2)ncc1F , its EC50 was > 1 µM

// sample O=C(Nc1ccnc(-c2cc(-c3ccon3)n(Cc3ccccc3F)n2)n1)C1CCCO1 (stereo not drawn) , its EC50 was 0.101 to 1 µM

// sample O=C(Nc1ccnc(-c2cc(-c3ccon3)n(Cc3ccccc3F)n2)n1)C1(OCc2ccccc2)CC1 , its EC50 was > 1 µM

// sample CS(=O)(=O)CS(=O)(=O)Nc1ccnc(-c2cc(-c3ccon3)n(Cc3ccccc3F)n2)n1 , its EC50 was > 1 µM

// sample O=C1CCC(=O)N1c1nc(-c2cc(-c3ccon3)n(Cc3ccccc3F)n2)ncc1F , its EC50 was 0.101 to 1 µM

// sample Nc1nc(-c2cc(-c3ccon3)n(CCC(F)(F)F)n2)ncc1F , its EC50 was > 1 µM

// sample NC(=O)C1CCC(=O)N1c1nc(-c2cc(-c3ccon3)n(Cc3ccccc3F)n2)ncc1F (stereo not drawn) , its EC50 was > 1 µM

// sample O=S(=O)(C1CCN(c2nc(-c3cc(-c4ccon4)n(Cc4ccccc4F)n3)ncc2F)CC1)N1CCOCC1 , its EC50 was < 0.1 µM

// sample OCC(CO)Nc1cnnc(-c2cc(-c3ccon3)n(Cc3ccccc3F)n2)n1 , its EC50 was > 1 µM

// sample O=C(O)c1cc(-c2ncc(F)c(NCC(O)(C(F)(F)F)C(F)(F)F)n2)nn1Cc1ccccc1F , its EC50 was > 1 µM

// sample O=S(=O)(CCC(F)(F)F)Nc1cnc(-c2cc(-c3ccon3)n(Cc3ccccc3F)n2)nc1 , its EC50 was 0.101 to 1 µM

// sample O=C(CN1CCOC1=O)Nc1ccnc(-c2cc(-c3ccon3)n(Cc3ccccc3F)n2)n1 , its EC50 was 0.101 to 1 µM

// sample O=S(=O)(NCCNc1nc(-c2cc(-c3ccon3)n(Cc3ccccc3F)n2)ncc1F)C(F)(F)F , its EC50 was < 0.1 µM

// sample O=C(O)C1(CNc2nc(-c3cc(-c4ccon4)n(Cc4ccccc4F)n3)ncc2F)CC1 , its EC50 was < 0.1 µM

// sample NS(=O)(=O)C1CCN(c2nc(-c3cc(-c4ccon4)n(Cc4ccccc4F)n3)ncc2F)C1 (stereo not drawn) , its EC50 was < 0.1 µM

// sample CCN(CC1(C(=O)O)CC1)c1nc(-c2cc(-c3ccon3)n(Cc3ccccc3F)n2)ncc1F , its EC50 was < 0.1 µM

----------
- Assay System: soluble guanylate cyclase (sGC) (Homo sapiens (Human), UniProt Q02108+Q02153)
- Experiment Notes: sGC-HEK-cGMP assay, new protocol with DETA-NONOate, LC/MS detection (Example 2C)
- Assay type: cell-based
- Measurement Setup: read-out: Absolute EC50 (uM) - binned
Provide the reported EC50 of each item.

// sample O=C(CC(F)(F)F)Nc1ccnc(-c2cc(-c3ccon3)n(Cc3ccccc3F)n2)n1 , its EC50 was 0.101 to 1 µM

// sample O=C1C=C(O)CN(c2nc(-c3cc(-c4ccon4)n(Cc4ccccc4F)n3)ncc2F)C1 , its EC50 was > 1 µM

// sample O=S1(=O)CCCN1c1nc(-c2cc(-c3ccon3)n(Cc3ccccc3F)n2)ncc1F , its EC50 was 0.101 to 1 µM

// sample OCCNc1nc(-c2cc(-c3ccon3)n(Cc3ccccc3F)n2)ncc1F , its EC50 was < 0.1 µM

# credit: patent US10183021B2
